Molecular target: human GABAA α2β2γ1 receptor (Homo sapiens (Human), UniProt P47869+Q8N1C3)
Experiment: Radioligand binding assay for γ1-containing GABAA subtypes, [3H]RO7239181 competition (α2β2γ1)
Conditions: Ki h-GABAA α2β2γ1, [3H]RO7239181 competition binding, human GABAA α2β2γ1
Procedure: The affinity of compounds at GABAA γ1 subunit-containing receptors was measured by competition for [^3H]RO7239181 (67.3 Ci/mmol; Roche) binding to membranes from HEK293F cells (ThermoFisher R79007) expressing human (transiently transfected) receptors of composition α5β2γ1, α2β2γ1, α1β2γ1. […]
READOUT: pKi
Hey, just a heads up that pKi is the negative log base 10 of the concentration in molar.

Known pKi results, listed for orientation:
>>> value("C[C@@H]1N=C(c2c(F)cccc2F)c2c(ccc(C(F)(F)F)c2Cl)-n2nc(C(=O)NC[C@@H](C)O)nc21")
7.86
>>> value("CC1CN(C(=O)c2cn3c(n2)[C@H](C)N=C(c2ncccc2F)c2c-3ccc(C(F)(F)F)c2Cl)C1")
7.06

INPUT: Param item = COC1CN(C(=O)c2nc3n(n2)-c2ccc(Cl)c(Cl)c2C(c2c(F)cccc2F)=N[C@H]3C)C1 ; retrieve measured pKi.
OUTPUT: 8.28

INPUT: What measured pKi goes with COCc1nc2n(n1)-c1ccc(Cl)c(Cl)c1C(c1c(F)cccc1F)=N[C@H]2C ?
OUTPUT: 7.94

INPUT: Name the reported pKi value associated with the compound C[C@@H]1N=C(c2ncccc2F)c2c(ccc(Cl)c2Cl)-n2nc(C(=O)N3CC4(CCCCO4)C3)nc21
OUTPUT: 7.42

INPUT: Item under review: CC(=O)NCc1nc2n(n1)-c1ccc(Cl)c(Cl)c1C(c1c(F)cccc1F)=N[C@H]2C . Reported pKi?
OUTPUT: 8.28

INPUT: Look up pKi: C[C@@H]1N=C(c2c(F)cccc2F)c2c(ccc(Cl)c2Cl)-n2nc(C(=O)N3CC[C@@H](F)C3)nc21
OUTPUT: 8.21
